# Target Or System: T1, human CD8 alpha (CD8A) on primary human CD8+ T cells (human, UniProt P01732 22-235)
# T1 construct: whole, on cells; also called hCD8A
# T1 sequence (P01732 22-235): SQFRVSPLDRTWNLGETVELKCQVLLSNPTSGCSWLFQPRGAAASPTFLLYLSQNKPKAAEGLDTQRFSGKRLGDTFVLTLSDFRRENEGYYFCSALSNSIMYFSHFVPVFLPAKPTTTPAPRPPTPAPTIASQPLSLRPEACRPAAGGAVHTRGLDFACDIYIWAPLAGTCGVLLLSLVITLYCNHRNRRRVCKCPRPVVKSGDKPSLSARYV
# Run Description: flow cytometry, human CD8+ T cells, 2 uM FN3
Test Readout: Human T-cell Binding 2 uM (MFI)
Express the reported value numerically, then name its unit.

stdin: Given the binder P282ER9P1360_D11 (designed binder, FN3 domain) LPAPKNLVVSRVTEDSARLSWTAPDAAFDSFGILYYEPVDSGEAITLPVPGSERSYDLTGLKPGTEYFVIIVGVKGGYPSIPLGAAFTT , what is its reported Human T-cell Binding 2 uM (MFI)?
stdout: 36800 MFI

stdin: Check P283AR9P1362_E9 (designed binder, FN3 domain) LPAPKNLVVSRVTEDSARLSWVPSPWGFDSFLIQYQESEKVGEAIVLTVPGSERSYDLTGLKPGTEYTVSIYGVDVKYDIDSRPISSNPLSAIFTT too.
stdout: 6180 MFI

stdin: What do you have for P283AR9P1362_D3 (designed binder, FN3 domain) LPAPKNLVVSRVTEDSARLSWPVESNAFDSFLIQYQESEKVGEAIVLTVPGSERSYDLTGLKPGTEYTVSIYGVDVEYDQHGRPRWSNPLSAIFTT ?
stdout: 9500 MFI

stdin: Now the binder P283AR9P1362_A4 (designed binder, FN3 domain) LPAPKNLVVSRVTEDSARLSWIGHDSGFDSFLIQYQESEKVGEAIVLTVPGSERSYDLTGLKPGTEYTVSIYGVDVKYDIDSRPISSNPLSAIFTT
stdout: 6310 MFI
